Test system: Coxsackievirus B4
Type: functional, organism-based
Calls of active or inactive are those of the source.

{"Molecule Smiles": "CC12CC3CC1(C)CC3(CN)C2", "Activity": "inactive"}
{"Molecule Smiles": "N=C(N)NCC12CC3CC(CC1C3)C2", "Activity": "inactive"}
{"Molecule Smiles": "C1CCN(C23CC4CC(CC2C4)C3)CC1", "Activity": "inactive"}
{"Molecule Smiles": "CC12CC3CC1(C)CC3(CNCc1ccccc1)C2", "Activity": "inactive"}
{"Molecule Smiles": "CC12CC3CC1(C)CC3(N)C2", "Activity": "inactive"}
{"Molecule Smiles": "Fc1ccc(CNC23CC4CC(CC2C4)C3)cc1", "Activity": "inactive"}
{"Molecule Smiles": "c1csc(CNC23CC4CC(CC2C4)C3)c1", "Activity": "inactive"}

* * *

Experiment: Cytotoxicity against MDCK cells by MTS assay
Type: cell-based, Canis lupus familiaris
Conditions: dog

{"Compound": "CC(N)C12CC3CC(CC(C3)C1)C2 (centres undefined) [RIMANTADINE]", "MCC": "> 100 µM"}
{"Compound": "NC12CC3CC(CC(C3)C1)C2 [AMANTADINE]", "MCC": "> 100 µM"}
{"Compound": "NCC12CC3CC(CC1C3)C2", "MCC": "> 530 µM"}
{"Compound": "NC12CC3CC(CC1C3)C2", "MCC": "> 575 µM"}

* * *

Molecular target: Glutamate NMDA receptor
Assay: Antagonist activity at NMDA receptor in cerebellar granule neurons assessed as inhibition of NMDA-induced increase in intracellular calcium concentration by fluorometric assay
Type: functional, cell-based
Recorded IC50, one value per entry.
Result Type: IC50

{"Molecule": "CN(C)CC12CC3(C)CC1CC3(C)C2", "Assay Target": "Glutamate NMDA receptor", "Observed": "> 200 µM"}
{"Molecule": "CN(Cc1ccccc1)CC12CC3(C)CC1CC3(C)C2", "Assay Target": "Glutamate NMDA receptor", "Observed": "160 µM"}
{"Molecule": "COc1cccc(CNC23CC4CC(CC2C4)C3)c1", "Assay Target": "Glutamate NMDA receptor", "Observed": "87 µM"}
{"Molecule": "CC12CC3CC1(C)CC3(NCc1cccs1)C2", "Assay Target": "Glutamate NMDA receptor", "Observed": "80 µM"}
{"Molecule": "c1ccc(CNC23CC4CC(CC2C4)C3)cc1", "Assay Target": "Glutamate NMDA receptor", "Observed": "> 200 µM"}
{"Molecule": "CC(N)C12CC3(C)CC1CC3(C)C2 (configuration not stated)", "Assay Target": "Glutamate NMDA receptor", "Observed": "37 µM"}
{"Molecule": "CN(C)CC12CC3CC(CC1C3)C2", "Assay Target": "Glutamate NMDA receptor", "Observed": "> 200 µM"}
{"Molecule": "CN(Cc1ccccc1)CC12CC3CC(CC1C3)C2", "Assay Target": "Glutamate NMDA receptor", "Observed": "178 µM"}
{"Molecule": "C1CCN(C23CC4CC(CC2C4)C3)CC1", "Assay Target": "Glutamate NMDA receptor", "Observed": "45 µM"}
{"Molecule": "CC12CC3CC1(C)CC3(N)C2", "Assay Target": "Glutamate NMDA receptor", "Observed": "23 µM"}
{"Molecule": "COc1ccccc1CNC12CC3CC(CC1C3)C2", "Assay Target": "Glutamate NMDA receptor", "Observed": "92 µM"}
{"Molecule": "CN(Cc1ccccc1)C12CC3(C)CC1CC3(C)C2", "Assay Target": "Glutamate NMDA receptor", "Observed": "> 200 µM"}
{"Molecule": "CC12CC3CC1(C)CC3(CN)C2", "Assay Target": "Glutamate NMDA receptor", "Observed": "128 µM"}
{"Molecule": "CC12CC3CC1(C)CC3(CN1CCCCC1)C2", "Assay Target": "Glutamate NMDA receptor", "Observed": "> 200 µM"}
{"Molecule": "CC12CC3CC1(C)CC3(CNC(=N)N)C2", "Assay Target": "Glutamate NMDA receptor", "Observed": "7.1 µM"}
{"Molecule": "COc1ccc(CNC23CC4CC(CC2C4)C3)cc1", "Assay Target": "Glutamate NMDA receptor", "Observed": "> 200 µM"}
{"Molecule": "CNC12CC3CC(CC1C3)C2", "Assay Target": "Glutamate NMDA receptor", "Observed": "65 µM"}

Taken from ChEMBL document CHEMBL1151696.
